Reference for the values: paper PMC9352680

Target: T1, PUF4 RNA-binding domain (Saccharomyces cerevisiae, UniProt P25339 537-888)
T1 sequence: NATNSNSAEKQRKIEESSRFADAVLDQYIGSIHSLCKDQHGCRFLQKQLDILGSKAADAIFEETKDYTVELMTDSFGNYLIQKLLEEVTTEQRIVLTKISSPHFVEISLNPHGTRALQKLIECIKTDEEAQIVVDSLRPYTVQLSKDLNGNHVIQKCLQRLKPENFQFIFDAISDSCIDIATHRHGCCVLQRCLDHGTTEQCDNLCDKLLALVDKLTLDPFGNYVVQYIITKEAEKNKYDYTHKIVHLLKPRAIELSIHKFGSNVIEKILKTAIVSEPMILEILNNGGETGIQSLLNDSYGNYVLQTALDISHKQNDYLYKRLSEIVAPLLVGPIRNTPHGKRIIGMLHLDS
Test: Mg; RNA-MaP; 20 mM Na-HEPES pH 7.4, 30 mM KOAc, 0.75 mM MgCl2, 0.1% Tween-20, 5% glycerol, 0.1 mg/mL BSA, 2 mM DTT; 25 C; 0.0125-409.6 nM protein
Conditions: tags: N-His6-TEV cleaved; C-SNAP kept, Cy3B-labelled; label: tethered on chip by stalled RNA polymerase
quantity.kind: Kd (nM)
Express the result in nM but write the number alone.

INSERT INTO measurements (binder, quantity_kind, readout_number) VALUES
  ('UCUCUUAAUAUAUAUUAACUCUCUU (ssRNA) [Id_ii_S1_P4E.3_K4.2_C4.2_[C-2A]_[T-1A]_H4.2_A4.1_F4.1_T4.2_[G10A]_[T11C]]', 'Kd', 442),
  ('Id_ii_S2_P3E.3_K3.2_C3.2_H3.2_A3.1_F3.1_T3.2_[T9C] (ssRNA) RNA: UUUGAUUAAUAUGAUAUCGUUCUUUCUCUUAUAUAUACAUUCUUUCUCGAUAUCAUAUUAAUCUUU', 'Kd', 108),
  ('UCUCUUUGUACGUUAUCUCUU (ssRNA) [Ic_S1_P4E.1_K4.1_C4.1_H4.1_A4.1_[T5C]_[A6G]_F4.1_T4.1]', 'Kd', 4.05),
  ('UCUCUUUGUAGCGUAAUCUCUU (ssRNA) [Ic_S1_P5E.1_K5.1_C5.1_H5.1_A5.1_[T5G]_[T6C]_[A7G]_F5.1_[T9A]_T5.1]', 'Kd', 300),
  ('UCUCUUCUAUAUAUAUAUAUCUCUU (ssRNA) [Id_i_S1_P3E.6_K3.2_C3.3_[T-3C]_[C-2T]_[T-1A]_H3.2_A3.1_F3.1_T3.2]', 'Kd', 341);

Please look at the following binder next.
Record Ic_S4_P4E.1_K4.1_C4.1_H4.1_A4.1_F4.1_[T8A]_[A9C]_T4.1 (ssRNA) RNA: UUUGACAACUGAUCGUUCUUUCUUGUAUAUACUUCUUUCUCGAUCAGUUGUCUUU . Reported Kd: 6.29
